Just for reference, ChEMBL document CHEMBL4725309 is where these values come from.

Property: Cmax; scope: individual compounds
assay: Cmax in Wistar Han rat at 5 mg/kg, po; type: ADME, organism-based; set-up: route oral, dose 5 mg/kg; conditions: in vivo
Write the value in nM as a bare number.

Recorded Cmax, per entry:
{"Structure": "COc1cc(C(=O)Nc2cc(C(F)(F)F)ccn2)ccc1-c1nc([C@@H]2CC[C@H]3CCC(=O)N3C2)n2ccnc(N)c12", "Cmax (nM)": 50}
{"Structure": "Nc1nccn2c([C@@H]3CC[C@H]4CCC(=O)N4C3)nc(-c3ccc(C(=O)Nc4cc(C(F)(F)F)ccn4)cc3OC3CC3)c12", "Cmax (nM)": 140}
{"Structure": "CC1(C)OC(=O)N2C[C@H](c3nc(-c4ccc(C(=O)Nc5cc(C(F)(F)F)ccn5)cc4)c4c(N)nccn34)CC[C@H]21", "Cmax (nM)": 1000}

Q: Give its Cmax value. Item: Nc1nccn2c([C@@H]3CC[C@H]4COC(=O)N4C3)nc(-c3ccc(C(=O)Nc4cc(C(F)(F)F)ccn4)cc3)c12
Ans: 340

Q: And what about the compound Nc1nccn2c([C@@H]3CC[C@H]4CCC(=O)N4C3)nc(-c3ccc(C(=O)Nc4cc(C(F)(F)F)ccn4)cc3)c12 ?
Ans: 1300
